- study system: T1, DNA polymerase iota catalytic core (hpol ι26-446) (Homo sapiens, UniProt Q9UNA4 26-446)
- T1 sequence: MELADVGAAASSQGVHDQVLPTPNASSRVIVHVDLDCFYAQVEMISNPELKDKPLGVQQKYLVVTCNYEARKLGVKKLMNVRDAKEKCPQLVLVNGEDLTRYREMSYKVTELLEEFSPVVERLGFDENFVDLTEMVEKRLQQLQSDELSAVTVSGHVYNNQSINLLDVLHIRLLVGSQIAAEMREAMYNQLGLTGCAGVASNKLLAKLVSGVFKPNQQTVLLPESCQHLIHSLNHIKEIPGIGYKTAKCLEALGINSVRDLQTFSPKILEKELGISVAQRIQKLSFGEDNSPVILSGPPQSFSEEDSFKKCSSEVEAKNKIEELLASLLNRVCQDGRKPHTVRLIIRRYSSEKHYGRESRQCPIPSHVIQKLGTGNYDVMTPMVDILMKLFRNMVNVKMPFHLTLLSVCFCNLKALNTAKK
- test details: fluorescence polarization
experimental endpoint: Kd

Incoming: Consider the binder FAM-13/18mer primer-template DNA (dsDNA) DNA 1: TTTGGGGGAAGGATTC DNA 2: TCACGGAATCCTTCCCCC and give its recorded Kd.
Outgoing: 9.1 nM
